Below: a set of entries, each annotated with reported IC50.
Target: human CGT (ceramide galactosyltransferase), CHO/CGT lysate (Homo sapiens, UniProt Q16880)
Construct: Full-length human CGT cDNA was cloned into the BamH1/Xho1 site of pcDNA3.1 (+); expressed in transfected cells; host or cells: Chinese hamster ovary (CHO) cells; lysate prepared with M-PER
Sequence (Q16880 21-541): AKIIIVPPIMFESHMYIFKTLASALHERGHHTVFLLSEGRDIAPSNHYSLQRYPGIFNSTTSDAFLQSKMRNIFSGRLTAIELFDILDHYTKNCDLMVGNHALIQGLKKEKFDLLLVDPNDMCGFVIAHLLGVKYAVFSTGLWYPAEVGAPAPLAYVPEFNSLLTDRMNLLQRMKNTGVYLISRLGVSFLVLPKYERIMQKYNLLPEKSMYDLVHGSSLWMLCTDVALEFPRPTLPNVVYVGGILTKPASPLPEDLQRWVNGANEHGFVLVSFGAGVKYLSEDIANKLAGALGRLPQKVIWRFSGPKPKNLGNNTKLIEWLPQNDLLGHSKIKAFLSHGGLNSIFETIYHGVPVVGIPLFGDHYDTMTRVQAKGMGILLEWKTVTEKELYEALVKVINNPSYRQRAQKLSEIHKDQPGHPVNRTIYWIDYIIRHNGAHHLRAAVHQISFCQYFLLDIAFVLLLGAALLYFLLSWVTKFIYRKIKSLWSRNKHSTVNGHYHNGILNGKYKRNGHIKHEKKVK
Test: CGT enzyme assay, RapidFire/MS/MS readout with 0.01% Tween added (Table 1 ranges with two asterisks **)
Assay type: biochemical
Conditions: CGT enzyme assay, RapidFire/MS/MS method with 0.01% Tween added (range with two asterisks **)
Where a name gives a salt, the structure may show the parent alone.

Example cases with answers are listed next.
NC1CCN(C(=O)[C@H](NS(=O)(=O)c2ccc(OCC3CCCCC3)cc2)C(F)(F)c2ccc(-c3ccc(Cl)cc3)cc2)CC1 [Compound 96-2] : 30 to 100 µM
COc1cc(C(F)(F)[C@@H](NS(=O)(=O)c2ccc3cc(OC4CCCC4)ccc3c2)C(=O)N2CCC(N)CC2)ccc1-c1ccc(Cl)cc1 [Compound 144-2] : 1 to 10 µM

Entry COc1cc(C(F)(F)[C@H](NS(=O)(=O)c2ccc3cc(OC4CCCC4)ccc3c2)C(=O)N2CCC(N)CC2)ccc1-c1ccc(Cl)cc1 [Compound 144-1, trifluoroacetate] — recorded IC50 = < 1 µM

Record NC1CC2CCC(C1)N2C(=O)[C@H](NS(=O)(=O)c1ccc2cc(OC3CCCC3)ccc2c1)C(F)(F)c1ccc(-c2ccc(Cl)cc2)cc1 (some centres unmarked) [Compound 48-2, trifluoroacetate] . Reported IC50: 1 to 10 µM

The reported IC50 of the compound COc1cc(C(F)(F)[C@@H](NS(=O)(=O)c2ccc(OCC3CCCCC3)cc2)C(=O)N2C3CCC2CC(N)C3)ccc1-c1ccc(Cl)cc1 (some centres unmarked) [Compound 142-2, trifluoroacetate] was 1 to 10 µM
